Every entry's value here was drawn from patent US20090258914A1.

Provide the recorded Microsomal Stability, % (45 minutes) for the entries that follow.
Experiment: Microsomal stability
Format: in vitro ADME
Answers are plain numbers, in %.

Completed entries (count: 2):
O=C(O)CN1C(=O)S/C(=C\c2ccc(-c3ccccc3)cc2)C1=O; 72
CC(C)C(C(=O)O)N1C(=O)/C(=C\c2ccc(Br)cc2)SC1=S (stereo not shown); 54

For each of the molecules below, note its Microsomal Stability, % (45 minutes).
1. CC(=C\c1ccccc1)/C=C1/SC(=S)N(C(C(=O)O)C(C)C)C1=O (stereo not shown)
2. CC(C)C(C(=O)O)N1C(=O)/C(=C\c2ccc(-c3ccccc3)cc2)SC1=S (stereo not shown)

[out]
1. 75
2. 22
